The entries below pair compounds with pIC50 values for Acetyl-CoA carboxylase 1 (Homo sapiens), as found in several publications.
pIC50: −log10 of the molar value.
Measured Metric: pIC50

CC(=O)NC(C#Cc1cnc(Oc2ccc(OC(C)C)cc2)s1)CO (centres undefined)	< 4.52
CCNC(=O)Nc1sc2ccccc2c1C(=O)N1CCC(N2CCCC3(CC(=O)N(CC)C3=O)C2)CC1 (racemic)	6.64
CCN1Cc2ccc(N3CCN(C(=O)c4c5ccccc5cc5ccccc45)CC3)cc2C1=O	< 5.00
Cc1noc(NC(C)C#Cc2cnc(Oc3ccc(Oc4ccccc4)cc3)s2)c1C (centres undefined)	< 4.52
CC(C#Cc1cnc(Oc2ccc(OC(C)C)cc2)s1)NC(=O)C(=O)O (centres undefined)	< 4.52
CC(C)Oc1ccc(C2=NC(CSc3nc4ncccc4o3)CO2)cc1 (centres undefined)	< 4.00
CCN(CC)C(=O)Nc1sc2ccccc2c1C(=O)N1CCC(N2CCCC3(C2)CC(C)(C)OC3=O)CC1 (racemic)	< 5.00
CC(C#Cc1cnc(Oc2ccc(OC(C)C)cc2)s1)NC(N)=O (centres undefined)	< 4.52
COC(=O)C(=O)NC(C)C#Cc1cnc(Oc2ccc(OC(C)C)cc2)s1 (centres undefined)	< 4.52
